Catalogue of Mouse 1 Eschar readings, one per entry.
System: atopic dermatitis-induced Nc/Nga mouse
ASSAY_NOTES: SCORAD clinical skin score, DNFB-induced atopic dermatitis in Nc/Nga mouse
Format: in vivo
Parameters: key: 0 = no symptom, 1 = mild, 2 = moderate, 3 = severe
PARTICULARS: Mouse 1; DNFB Nc/Nga; 0.1% topical day 15-21; graded per Example 4

MOLECULE | Mouse 1 Eschar
CCC(=O)N[C@@H](Cc1c[nH]c2ccccc12)C(=O)O | 2
CCCCCCCCCCC(=O)N[C@@H](Cc1c[nH]c2ccccc12)C(=O)O | 1
CCCCCCCC/C=C\CCCCCCCCCCCC(=O)N[C@@H](Cc1c[nH]c2ccccc12)C(=O)O [N-(Z)-docos-13-enoyl L-tryptophan, N—(Z)-docos-13-enoyl-L-tryptophan] | 1
